- Test system: NCI/ADR-RES ovarian
- assay.remarks: NCI tumour cell line growth inhibition, 48 h
property.measured: TGI (µM)
Return type: number; implicit unit µM.

For the molecule COc1cc(/C=C\c2cccnc2Nc2ccccc2)cc(OC)c1OC , give its measured TGI value.
63.2

Query TGI for CC(C)(C)c1ccc(S(=O)(=O)N[C@H]2CC[C@H]3[C@@H]4CCc5cc(O)ccc5[C@H]4CC[C@]23C)cc1
5.21

Identify measured TGI corresponding to CSc1s[s+]c(SC)c1-c1ccccc1
42.1

Find the measured TGI of CN(C)CCNc1nc2ccccc2c2c1C(=O)c1ccccc1-2 and report it.
2.06

###

- Test system: DLD-1 colon
- assay.remarks: NCI tumour cell line growth inhibition, 48 h
So I've got a bunch of compounds here, and I need their TGI values.

Return TGI (reported value) for this compound: Fc1nc(F)nc(-c2c3ccccc3c3n2CCS3)n1
> 100 µM

State its TGI: COc1cc(C2c3cc4c(cc3[C@@H](Nc3cccc(O)c3)C3COC(=O)[C@H]23)OCO4)cc(OC)c1O (stereo not given in full)
40.9 µM

Tell me TGI reported for C/C(=N\NC(=S)N1CCC(C2CCN(C(=S)N/N=C(\C)c3ccccn3)CC2)CC1)c1ccccn1
> 100 µM

Report TGI for Cc1cccc(CC(C)(C)C)c1NC(=O)C(=O)C(C(=O)c1ccc2ccccc2c1)C1OC(=O)c2ccccc21 (stereo not given)
35.1 µM

For the compound O=C(OCc1nc2ccc(Br)cc2c(=O)n1-c1ccccc1)c1ccccc1O , give its measured TGI value.
> 100 µM

Please look at this compound and report its TGI: COc1cc(CC(=O)c2ccc3c(c2)OCO3)cc(OC)c1OC
> 100 µM

Quote TGI reported for O=C1/C(=C/c2ccccc2)CN(C(=O)OCC(Cl)(Cl)Cl)C/C1=C\c1ccccc1 please.
3.77 µM

Supply measured TGI of Cc1c(-c2coc(-c3ccc(Cl)cc3)n2)c(=O)n(-c2ccccc2)n1C in your reply.
> 100 µM

Name the recorded TGI of the item CCOC(=O)NNC(=O)NC12CC3CC(CC(C3)C1)C2 in your answer.
> 100 µM

Look up TGI of NC(CO)c1ccccc1 (stereo not given) and report it.
> 100 µM

###

- System: HL-60(TB) leukemia
- assay.remarks: NCI tumour cell line growth inhibition, 48 h
property.measured: TGI

Send back HL-60(TB) leukemia TGI of CC(=O)N[C@@H]1CCC[C@H](C(=O)Nc2cc(-c3cnn4c3CC(C)(C)C4)c(Cl)cn2)C1 only.
< 0.017 µM

GET TGI where system = HL-60(TB) leukemia and item = Cc1ccc(C2=Nn3c(nc4sc(-c5ccccc5)cc4c3=O)SC2)cc1
> 100 µM

Recall the reported TGI of O=C1N2CCc3c([nH]c4ccccc34)C23CC2CCCC12S3 (stereo not given) on HL-60(TB) leukemia and write it down.
> 50 µM

Enter TGI (test system HL-60(TB) leukemia) for C=CCOn1c(C=C)nc2c(C)cccc21
5.1 µM

Provide TGI, recorded with HL-60(TB) leukemia, of O=C(O)c1ccccc1-c1ccccc1C(=O)c1ccccc1
> 100 µM

Report its TGI with HL-60(TB) leukemia as the test system: COc1cc(CC(=O)c2ccc3c(c2)OCO3)cc(OC)c1OC
> 100 µM

Report measured TGI on HL-60(TB) leukemia; entry: C=C(C)[C@]12CC(C)C34OC(/C=C\C=C\CCCCCCCCC)(O[C@@H]1[C@@H]3[C@@H]1O[C@]1(CO)[C@@H](O)[C@]1(O)C(=O)C(C)=C[C@@H]41)O2 (stereo not given in full)
> 20.5 µM

Look up and report measured TGI (HL-60(TB) leukemia) for the following molecule: C#Cc1ccc(-n2c(/C=C/c3cc(OC)c(OC)c(OC)c3)nc3ncccc3c2=O)cc1
25.6 µM

GET TGI | system: HL-60(TB) leukemia | item: CC1=CC(c2ccccc2)n2c(nc3cc4ccccc4cc32)N1 (stereo not given)
> 100 µM

Look up and report measured TGI (HL-60(TB) leukemia) for the following molecule: CN(C)CCNc1nc2ccccc2c2c1C(=O)c1ccccc1-2
0.812 µM

With HL-60(TB) leukemia as the test system, provide measured TGI for this molecule: C/C(=C/CC[C@](C)(OC1OC(CO)C(O)C(O)C1O)[C@H]1CC[C@]2(C)[C@@H]1CC[C@@H]1[C@@]3(C)CC[C@H](O)C(C)(C)[C@@H]3C[C@H](O)[C@]12C)CO (stereo not given in full)
49.9 µM

Answer with TGI of COc1cc2c(cc1OC)[C@H]1C(=O)c3cc4c(cc3[C@H]1N(C)C2=O)OCO4 measured for HL-60(TB) leukemia.
> 68.6 µM

Fetch value of TGI on HL-60(TB) leukemia for O=C(O)CNC(=O)c1cccc2c(=O)c3ccccc3[nH]c12 .
> 100 µM

Provide TGI, system HL-60(TB) leukemia, entry Fc1nc(F)nc(-c2c3ccccc3c3n2CCS3)n1
> 100 µM

Look up HL-60(TB) leukemia data: TGI of COC(=O)C1(Cc2ccccc2)Cc2ccccc2C1=O (stereo not given) , then report it.
51.1 µM

For HL-60(TB) leukemia, give the measured TGI of the entry COc1ccc(C=O)cc1Oc1ccc(C[C@H]2c3c(cc(OC)c4c3Oc3cc5c(cc3O4)CCN(C)C5=O)CCN2C)cc1
17.5 µM

Please respond with reported TGI (system HL-60(TB) leukemia) for COc1ccc(N(Cc2cc(OC)c(OC)c(OC)c2)C2OC(=O)c3ccccc32)cc1 (stereo not given) .
2.25 µM

Retrieve TGI on HL-60(TB) leukemia; query Cc1cc2c(cc1Cl)SC1=NN(C)C(c3ccccc3O)N1S2(=O)=O (stereo not given)
> 100 µM

Report value only: TGI, HL-60(TB) leukemia, CCC1NCC(=O)c2c1[nH]c1ccccc21 (stereo not given)
> 100 µM

Report its TGI with HL-60(TB) leukemia as the test system: CN(Cc1nc2c(N)nc(N)nc2nc1N)c1ccc(C(=O)NC(CCC(=O)O)C(=O)O)cc1 (stereo not given)
> 100 µM

###

- System: KM12 colon
- assay.remarks: NCI tumour cell line growth inhibition, 48 h
Label Y when TGI is at or above 4 µM; otherwise label N.

Does the reported TGI for Clc1ncc(C(Cl)(Cl)Cl)nc1-c1ccccc1 fall at or above the 4 µM mark?
N

Evaluate CCOC(=O)C(Cc1c(-c2[nH]c3ccccc3c2CC(NC(=O)CNC(C)=O)C(=O)OCC)[nH]c2ccccc12)NC(=O)CNC(C)=O (stereo not given) : TGI at minimum 4 µM?
Y

Decide: is the reported value of TGI for CSc1s[s+]c(SC)c1-c1ccccc1 equal to or greater than 4 µM?
Y

Would you say O=C(NO)C(O)C(O)C(O)C(O)CO (stereo not given) shows TGI at minimum 4 µM?
Y

Reported TGI reaches at least 4 µM for O=C(Nc1ccccc1)Nc1ccccc1CNc1nc(Nc2ccc(OCCN3CCCC3)cc2)ncc1Cl ?
Y

Is TGI at least 4 µM? Consider CC(=O)N[C@@H]1CCC[C@H](C(=O)Nc2cc(-c3cnn4c3CC(C)(C)C4)c(Cl)cn2)C1
Y

Entry C/C(=N\O)c1ccc(Nc2c3ccccc3nc3occc23)cc1 : is its TGI no less than 4 µM?
Y

Hi team, for Cn1c(COC(=O)NCCN2CCOCC2)nc2c(N3CCOCC3)nc(-c3ccccc3)nc21 , is the recorded TGI at or above 4 µM?
N

Item Cc1cc2c(cc1Cl)SC1=NN(C)C(c3ccccc3O)N1S2(=O)=O (stereo not given) with TGI of 4 µM or above?
Y

###

- Test system: KM12 colon
- assay.remarks: NCI tumour cell line growth inhibition, 48 h
Where a SMILES comes first, the peptide text is derived from it. The star is where a group is joined. Palmitoyl = CCCCCCCCCCCCCCCC(=O)*
Give TGI for every item shown.

Kindly indicate its recorded TGI. Item: CCOC(=N)CC(=O)NC(C)c1ccccc1 (centres undefined)
> 100 µM

Report TGI for CCCCCCCCCCCCCCCC(=O)NC(CCCCN)C(=O)NCC(=O)NC(Cc1ccccc1)C(=O)N1CCCC1C(=O)NC(CO)C(=O)NC(Cc1ccc(O)cc1)C(=O)NC(CCCCN)C(=O)NC(CC(C)C)C(=O)NC(CCCN=C(N)N)C(=O)N1CCCC1C(=O)NCC(N)=O (centres undefined) (Palmitoyl-KGFPSYKLRPG-NH2; configuration not given here)
46.6 µM

State, in one line, measured TGI of N#CC(=C=[N-])[n+]1ccc(Cl)cc1
59.7 µM

Input O=C(NCCCCl)c1c(O)c2ccccc2[nH]c1=O , output reported TGI.
> 100 µM

For the compound CC(C)CC1c2[nH]c3ccccc3c2C[C@H]2C(=O)NC(COC(C)(C)C)C(=O)N12 (some centres undefined) , give its reported TGI.
80.2 µM

Give TGI for COc1ccc(S(=O)(=O)Nc2ccc(-c3csc(N4C(=O)/C(=C/C=C\c5ccccc5)N=C4c4ccccc4)n3)cc2)cc1Cl
97.1 µM

Identify the reported TGI for the following entry. CSc1nc(Br)nc2c1ncn2C1CC(Oc2ccc(C)cc2)C(COc2ccc(C)cc2)O1 (centres undefined)
> 100 µM

Dear colleague, please send me the reported TGI for C=C(C)[C@]12CC(C)C34OC(/C=C\C=C\CCCCCCCCC)(O[C@@H]1[C@@H]3[C@@H]1O[C@]1(CO)[C@@H](O)[C@]1(O)C(=O)C(C)=C[C@@H]41)O2 (some centres undefined) when you can.
21.7 µM

Indicate the recorded TGI value for this compound: COC(=O)C1=C(O)C(C(=O)OC)[C@@]2(O)[C@@H](C(=O)OC)C(c3ccc(OC(=O)C(CC(C)C)NC(C)=O)cc3)C[C@@H]1[C@@H]2C(=O)OC (some centres undefined)
> 100 µM

Give the reported value of TGI for this record: COC(=O)CNC(=O)/C=C/[C@H](O[Si](C)(C)C(C)(C)C)[C@H](/C=C/C(=O)NCC(=O)OC)O[Si](C)(C)C(C)(C)C
> 25 µM

Give reported TGI value for Cc1ns/c(=N\C(=S)N(C)C)n1C
> 100 µM

Please look at this compound and report its TGI: CCC1NCC(=O)c2c1[nH]c1ccccc21 (centres undefined)
> 100 µM

Consider the compound Cc1ccc(S(=O)(=O)NC(=O)NS(=O)(=O)O)cc1 and give its recorded TGI.
> 100 µM

Provide only the value of recorded TGI for CC(C)=C1CCC(CN2CCCC2)C1=O (centres undefined)
> 100 µM

// fetch TGI given entry CCCCCCN1C(=O)CN=C1Nc1ccc2cc3ccc(NC4=NCC(=O)N4CCCCCC)cc3nc2c1
4.1 µM

Please give measured TGI of the following entry: C=CCN1C(=O)/C(=C/c2ccc(Cl)cc2)N=C1SC1OC(COC(C)=O)C(OC(C)=O)C(OC(C)=O)C1OC(C)=O (centres undefined)
> 100 µM

Could you please provide reported TGI for CN(C)CCNc1nc2ccccc2c2c1C(=O)c1ccccc1-2 ? Thanks!
2.11 µM

Consider the compound Cc1cc(S(=O)(=O)NC(=NCC(=O)NN)NN)c(S)cc1Cl and give its recorded TGI.
> 10 µM

Name the recorded TGI of the item CSc1nc2c(ncn2C2OCC(O)C(O)C2O)c(=O)[nH]1 (centres undefined) in your answer.
> 100 µM

Sourced from PubChem BioAssay (NCI)
